- system: mLTC-EGFR (Homo sapiens, UniProt P00533, C797S/L858R/T790M)
- protocol: Intact protein mass spectrometry, covalent adduct formation
- Format: binding
- measurement_parameters: adduct stoichiometry by intact protein mass spectrometry

>  <smiles_str>
C=CC(=O)NCc1cccc(-c2nn(C)c3ncnc(N)c23)c1

>  <Protein adduct formation>
0

$$$$
>  <smiles_str>
C=CC(=O)Nc1cccc(-c2nn(C)c3ncnc(N)c23)c1

>  <Protein adduct formation>
1

$$$$
>  <smiles_str>
C=CC(=O)NCc1cc(=O)n(-c2ccccc2)c2nc(Nc3ccccc3OC)ncc12

>  <Protein adduct formation>
0

$$$$
>  <smiles_str>
C=CC(=O)NCCOc1ccc(-c2nn(C)c3ncnc(N)c23)cc1

>  <Protein adduct formation>
0

$$$$

====

- system: wild-type EGFR (WT-EGFR) (Homo sapiens, UniProt P00533)
- Construct: made in house; host or cells: SF9 insect cells (MultiBac)
- protocol: TR-FRET fluorescent probe displacement assay
- Format: binding
- measurement_parameters: TR-FRET; read-out: WT-EGFR IC50
- Experimental: Compounds (dissolved to 100 mM in DMSO) were dispensed into black low volume 384 well assay plates (Corning) over a final concentration range of 100,000, 30,000, 10,000, 3000, 1000, 300, 100, 30, 10, and 3 nM using an Echo 550 (Labcyte). Positive control compound and DMSO as a negative control were dispensed into the first and last well, respectively. […] The data were analyzed using Graphpad Prism/Dotmatics Studies Software. […]

>  <compound>
CC#Cc1cc(=O)n(-c2ccccc2)c2nc(Nc3ccccc3OC)ncc12 [Compound S12]

>  <value_qualifier>
>

>  <IC50 [µM]>
100

$$$$
>  <compound>
C=Cc1cc(=O)n(-c2ccccc2)c2nc(Nc3ccccc3OC)ncc12 [Compound S11]

>  <value_qualifier>
>

>  <IC50 [µM]>
100

$$$$
>  <compound>
COc1ccccc1Nc1ncc2ccc(=O)n(-c3ccccc3)c2n1 [Compound S10]

>  <value_qualifier>
=

>  <IC50 [µM]>
15

$$$$
>  <compound>
C#Cc1cc(-c2cnn3ccccc23)nc(Nc2ccccc2)n1 [Compound 2]

>  <value_qualifier>
=

>  <IC50 [µM]>
48

$$$$

====

- system: recombinant doubly mutated EGFR L858R, T790M kinase domain (mLT-EGFR) (Homo sapiens, UniProt P00533, L858R/T790M)
- protocol: Kinetic analysis (AssayQuant)
- measurement_parameters: read-out: KI app
pKi: −log10 of the molar value.
Assign class by pKi: not lower than 7 means fulfilled; lower than 7 means not fulfilled.

>  <smiles_str>
C#Cc1cc(=O)n(-c2ccccc2)c2nc(Nc3ccc(N(C)C(=O)COC)cc3OC)ncc12

>  <discrete_label>
not fulfilled

$$$$
>  <smiles_str>
C#Cc1cc(=O)n(-c2ccccc2)c2nc(Nc3ccc(N4CCN(C)CC4)cc3)ncc12

>  <discrete_label>
fulfilled

$$$$
>  <smiles_str>
C#Cc1cc(=O)n(-c2ccccc2)c2nc(Nc3ccc(N4CCOCC4)cc3)ncc12

>  <discrete_label>
fulfilled

$$$$
>  <smiles_str>
C#Cc1cc(=O)n(-c2ccccc2)c2nc(Nc3ccc(N(C)CCN(C)C)cc3)ncc12

>  <discrete_label>
fulfilled

$$$$

====

- system: wild-type EGFR (WT-EGFR) (Homo sapiens, UniProt P00533)
- Construct: made in house; host or cells: SF9 insect cells (MultiBac)
- protocol: TR-FRET fluorescent probe displacement assay
- Assay type: binding
- measurement_parameters: TR-FRET, n > 3; read-out: WT-EGFR IC50
pIC50: −log10 of the molar value.
The entries below are paired with their reported pIC50.

>  <smiles_str>
C#Cc1cc(=O)n(-c2ccccc2)c2nc(Nc3ccc(N4CCN(C)CC4)cc3)ncc12

>  <system>
wild-type EGFR (WT-EGFR) (Homo sapiens, UniProt P00533)

>  <pIC50>
7.11

$$$$
>  <smiles_str>
C#Cc1cc(=O)n(-c2ccccc2)c2nc(Nc3ccc(N(C)C(=O)COC)cc3OC)ncc12

>  <system>
wild-type EGFR (WT-EGFR) (Homo sapiens, UniProt P00533)

>  <pIC50>
5.48

$$$$
>  <smiles_str>
C#Cc1cc(=O)n(-c2ccccc2)c2nc(Nc3ccc(N4CCOCC4)cc3)ncc12

>  <system>
wild-type EGFR (WT-EGFR) (Homo sapiens, UniProt P00533)

>  <pIC50>
7.16

$$$$
>  <smiles_str>
C#Cc1cc(=O)n(-c2ccccc2)c2nc(Nc3ccc(N4CCN(C)CC4)cc3OC)ncc12

>  <system>
wild-type EGFR (WT-EGFR) (Homo sapiens, UniProt P00533)

>  <pIC50>
7.00

$$$$
>  <smiles_str>
C#Cc1cc(=O)n(-c2ccccc2)c2nc(Nc3ccc(N(C)CCN(C)C)cc3)ncc12

>  <system>
wild-type EGFR (WT-EGFR) (Homo sapiens, UniProt P00533)

>  <pIC50>
6.70

$$$$
>  <smiles_str>
C#Cc1cc(=O)n(-c2ccccc2)c2nc(Nc3ccc(N(C)C(=O)CN(C)C)cc3OC)ncc12

>  <system>
wild-type EGFR (WT-EGFR) (Homo sapiens, UniProt P00533)

>  <pIC50>
5.29

$$$$
>  <smiles_str>
C#Cc1cc(=O)n(-c2ccccc2)c2nc(Nc3ccc(N4CCOCC4)cc3OC)ncc12

>  <system>
wild-type EGFR (WT-EGFR) (Homo sapiens, UniProt P00533)

>  <pIC50>
7.24

$$$$
>  <smiles_str>
C#Cc1cc(=O)n(-c2ccccc2)c2nc(Nc3ccc(N(C)C(=O)CCOC)cc3OC)ncc12

>  <system>
wild-type EGFR (WT-EGFR) (Homo sapiens, UniProt P00533)

>  <pIC50>
5.39

$$$$

====

- system: recombinant doubly mutated EGFR L858R, T790M kinase domain (mLT-EGFR) (Homo sapiens, UniProt P00533, L858R/T790M)
- protocol: Kinetic analysis (AssayQuant)
- Type: biochemical

>  <smiles_str>
C#Cc1cc(=O)n(-c2ccccc2)c2nc(Nc3ccc(N(C)C(=O)CN(C)C)cc3OC)ncc12

>  <measurement_units>
M⁻¹ s⁻¹

>  <kinact/KI>
3.3e+07

$$$$
>  <smiles_str>
C#Cc1cc(=O)n(-c2ccccc2)c2nc(Nc3ccc(N4CCOCC4)cc3)ncc12

>  <measurement_units>
M⁻¹ s⁻¹

>  <kinact/KI>
3.7e+08

$$$$
>  <smiles_str>
C#Cc1cc(=O)n(-c2ccccc2)c2nc(Nc3ccc(N(C)C(=O)COC)cc3OC)ncc12

>  <measurement_units>
M⁻¹ s⁻¹

>  <kinact/KI>
1.8e+07

$$$$
>  <smiles_str>
C#Cc1cc(=O)n(-c2ccccc2)c2nc(Nc3ccc(N4CCN(C)CC4)cc3)ncc12

>  <measurement_units>
M⁻¹ s⁻¹

>  <kinact/KI>
8.2e+08

$$$$

====

- system: wild-type EGFR (WT-EGFR) (Homo sapiens, UniProt P00533)
- Construct: made in house; host or cells: SF9 insect cells (MultiBac)
- protocol: TR-FRET fluorescent probe displacement assay
- Assay type: binding
- measurement_parameters: TR-FRET, n > 3; read-out: WT-EGFR pIC50 ± std dev (converted)
- Method: Compounds (dissolved to 100 mM in DMSO) were dispensed into black low volume 384 well assay plates (Corning) over a final concentration range of 100,000, 30,000, 10,000, 3000, 1000, 300, 100, 30, 10, and 3 nM using an Echo 550 (Labcyte). Positive control compound and DMSO as a negative control were dispensed into the first and last well, respectively. […] The data were analyzed using Graphpad Prism/Dotmatics Studies Software. […]
The entries below are paired with their reported log10 of IC50.
quantity_kind: log10 of IC50 (log10 of the value in µM)

>  <smiles_str>
C#Cc1cc(=O)n(-c2ccccc2)c2nc(Nc3ccc(N4CCN(C)CC4)cc3)ncc12

>  <quantity_kind>
log10 of IC50

>  <test_value>
-1.10

$$$$
>  <smiles_str>
C#Cc1cc(=O)n(-c2ccccc2)c2nc(Nc3ccc(N4CCOCC4)cc3)ncc12

>  <quantity_kind>
log10 of IC50

>  <test_value>
-1.20

$$$$
>  <smiles_str>
C#Cc1cc(=O)n(-c2ccccc2)c2nc(Nc3ccc(N(C)C(=O)CN(C)C)cc3OC)ncc12

>  <quantity_kind>
log10 of IC50

>  <test_value>
0.70

$$$$
>  <smiles_str>
C#Cc1cc(=O)n(-c2ccccc2)c2nc(Nc3ccc(N4CCN(C)CC4)cc3OC)ncc12

>  <quantity_kind>
log10 of IC50

>  <test_value>
-1.00

$$$$
>  <smiles_str>
COc1ccccc1Nc1ncc2ccc(=O)n(-c3ccccc3)c2n1

>  <quantity_kind>
log10 of IC50

>  <test_value>
1.20

$$$$
>  <smiles_str>
C#Cc1cc(=O)n(-c2ccccc2)c2nc(Nc3ccc(N(C)C(=O)COC)cc3OC)ncc12

>  <quantity_kind>
log10 of IC50

>  <test_value>
0.50

$$$$
>  <smiles_str>
C#Cc1cc(=O)n(-c2ccccc2)c2nc(Nc3ccc(N(C)CCN(C)C)cc3)ncc12

>  <quantity_kind>
log10 of IC50

>  <test_value>
-0.70

$$$$
>  <smiles_str>
C#Cc1cc(=O)n(-c2ccccc2)c2nc(Nc3ccc(N(C)C(=O)CCOC)cc3OC)ncc12

>  <quantity_kind>
log10 of IC50

>  <test_value>
0.50

$$$$
>  <smiles_str>
C#Cc1cc(=O)n(-c2ccccc2)c2nc(Nc3ccc(N4CCOCC4)cc3OC)ncc12

>  <quantity_kind>
log10 of IC50

>  <test_value>
-1.20

$$$$
